Measured values drawn from patent US10696677B2 for this set.

List of Ki values.
target: UniProt P34972; assay: radioligand displacement binding at CB2 ([3H]CP55940, membranes of CHO-K1 cells over-expressing receptor); conditions: read-out: Binding affinity (Ki) at hCB2; displacement of [3H]CP55940, CHO-K1 membranes; average of 3-6 measurements
Sequence (P34972 whole entry): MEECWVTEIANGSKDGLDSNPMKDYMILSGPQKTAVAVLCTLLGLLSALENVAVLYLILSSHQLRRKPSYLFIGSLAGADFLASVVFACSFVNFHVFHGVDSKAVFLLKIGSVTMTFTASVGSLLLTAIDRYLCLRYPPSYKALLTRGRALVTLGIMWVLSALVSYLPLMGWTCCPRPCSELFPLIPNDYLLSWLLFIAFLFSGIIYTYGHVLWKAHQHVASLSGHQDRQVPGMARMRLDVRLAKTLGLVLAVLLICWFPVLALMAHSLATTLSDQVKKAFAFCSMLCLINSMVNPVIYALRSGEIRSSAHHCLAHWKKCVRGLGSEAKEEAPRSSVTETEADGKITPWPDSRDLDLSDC

{"compound": "O=C(Nc1ccccn1)N1CCN(c2ncnc3c2nc(-c2ccccc2Cl)n3-c2ccc(Cl)cc2)CC1", "Ki": "7100 nM"}
{"compound": "O=C(C1COc2ccccc2O1)N1CCN(c2ncnc3c2nc(-c2ccccc2Cl)n3-c2ccc(Cl)cc2)CC1 (stereo not shown)", "Ki": "606 nM"}
{"compound": "O=C(Nc1ccc(F)cc1F)N1CCN(c2ncnc3c2nc(-c2ccccc2Cl)n3-c2ccc(Cl)cc2)CC1", "Ki": "3200 nM"}
{"compound": "O=C(Nc1ccc(F)cc1)N1CCN(c2ncnc3c2nc(-c2ccccc2Cl)n3-c2ccc(Cl)cc2)CC1", "Ki": "2000 nM"}
{"compound": "O=C(NC1CCCCC1)N1CCN(c2ncnc3c2nc(-c2ccccc2Cl)n3-c2ccc(Cl)cc2)CC1", "Ki": "620 nM"}
{"compound": "CCCS(=O)(=O)N1CCN(c2ncnc3c2nc(-c2ccccc2Cl)n3-c2ccc(Cl)cc2)CC1", "Ki": "848 nM"}
{"compound": "O=S(=O)(C1CC1)N1CCN(c2ncnc3c2nc(-c2ccccc2Cl)n3-c2ccc(Cl)cc2)CC1", "Ki": "2300 nM"}
